- condition_notes: in methanol, 303.15 K
attribute_measured: solubility (mole fraction)

COc1cc(-c2cc(-c3ccc(Br)cc3)[nH]c(=O)c2C#N)ccc1O
0.000555
COc1cc(-c2cc(-c3ccc(F)cc3)[nH]c(=O)c2C#N)ccc1O
0.000638
COc1ccc(-c2cc(-c3ccc(O)c(OC)c3)c(C#N)c(=O)[nH]2)cc1
0.000502
COc1cc(-c2cc(-c3ccc(Cl)cc3)[nH]c(=O)c2C#N)ccc1O
0.000603
COc1cc(-c2cc(-c3ccc(O)cc3)[nH]c(=O)c2C#N)ccc1O
0.000605

----------
- condition_notes: in n-propanol, 303.15 K
attribute_measured: solubility (mole fraction)

COc1ccc(-c2cc(-c3ccc(O)c(OC)c3)c(C#N)c(=O)[nH]2)cc1
0.000782
COc1cc(-c2cc(-c3ccc(O)cc3)[nH]c(=O)c2C#N)ccc1O
0.000882
COc1cc(-c2cc(-c3ccc(Br)cc3)[nH]c(=O)c2C#N)ccc1O
0.0008
COc1cc(-c2cc(-c3ccc(F)cc3)[nH]c(=O)c2C#N)ccc1O
0.000907
COc1cc(-c2cc(-c3ccc(Cl)cc3)[nH]c(=O)c2C#N)ccc1O
0.000836

----------
- condition_notes: in 1,4-dioxane, 313.15 K
attribute_measured: solubility (mole fraction)

COc1ccc(-c2cc(-c3ccc(O)c(OC)c3)c(C#N)c(=O)[nH]2)cc1
0.00171
COc1cc(-c2cc(-c3ccc(F)cc3)[nH]c(=O)c2C#N)ccc1O
0.00183
COc1cc(-c2cc(-c3ccc(Cl)cc3)[nH]c(=O)c2C#N)ccc1O
0.00172
COc1cc(-c2cc(-c3ccc(Br)cc3)[nH]c(=O)c2C#N)ccc1O
0.00163
COc1cc(-c2cc(-c3ccc(O)cc3)[nH]c(=O)c2C#N)ccc1O
0.00178

----------
- condition_notes: in ethyl acetate, 313.15 K
attribute_measured: solubility (mole fraction)

COc1cc(-c2cc(-c3ccc(O)cc3)[nH]c(=O)c2C#N)ccc1O
0.00122
COc1cc(-c2cc(-c3ccc(Br)cc3)[nH]c(=O)c2C#N)ccc1O
0.00132
COc1cc(-c2cc(-c3ccc(Cl)cc3)[nH]c(=O)c2C#N)ccc1O
0.0015
COc1ccc(-c2cc(-c3ccc(O)c(OC)c3)c(C#N)c(=O)[nH]2)cc1
0.00129
COc1cc(-c2cc(-c3ccc(F)cc3)[nH]c(=O)c2C#N)ccc1O
0.0016

----------
- condition_notes: in ethanol, 298.15 K
attribute_measured: solubility (mole fraction)

COc1cc(-c2cc(-c3ccc(O)cc3)[nH]c(=O)c2C#N)ccc1O
0.000745
COc1cc(-c2cc(-c3ccc(Cl)cc3)[nH]c(=O)c2C#N)ccc1O
0.00073
COc1cc(-c2cc(-c3ccc(Br)cc3)[nH]c(=O)c2C#N)ccc1O
0.00071
COc1ccc(-c2cc(-c3ccc(O)c(OC)c3)c(C#N)c(=O)[nH]2)cc1
0.00069
COc1cc(-c2cc(-c3ccc(F)cc3)[nH]c(=O)c2C#N)ccc1O
0.000762

----------
- condition_notes: in chloroform, 323.15 K
attribute_measured: solubility (mole fraction)

COc1ccc(-c2cc(-c3ccc(O)c(OC)c3)c(C#N)c(=O)[nH]2)cc1
0.00134
COc1cc(-c2cc(-c3ccc(O)cc3)[nH]c(=O)c2C#N)ccc1O
0.00157
COc1cc(-c2cc(-c3ccc(Cl)cc3)[nH]c(=O)c2C#N)ccc1O
0.00149
COc1cc(-c2cc(-c3ccc(F)cc3)[nH]c(=O)c2C#N)ccc1O
0.00167
COc1cc(-c2cc(-c3ccc(Br)cc3)[nH]c(=O)c2C#N)ccc1O
0.00137

----------
- condition_notes: in ethyl acetate, 318.15 K
attribute_measured: solubility (mole fraction)

COc1cc(-c2cc(-c3ccc(F)cc3)[nH]c(=O)c2C#N)ccc1O
0.00169
COc1cc(-c2cc(-c3ccc(Br)cc3)[nH]c(=O)c2C#N)ccc1O
0.0014
COc1cc(-c2cc(-c3ccc(O)cc3)[nH]c(=O)c2C#N)ccc1O
0.00127
COc1ccc(-c2cc(-c3ccc(O)c(OC)c3)c(C#N)c(=O)[nH]2)cc1
0.00136
COc1cc(-c2cc(-c3ccc(Cl)cc3)[nH]c(=O)c2C#N)ccc1O
0.00159

----------
- condition_notes: in n-butanol, 328.15 K
attribute_measured: solubility (mole fraction)

COc1cc(-c2cc(-c3ccc(F)cc3)[nH]c(=O)c2C#N)ccc1O
0.000903
COc1cc(-c2cc(-c3ccc(Cl)cc3)[nH]c(=O)c2C#N)ccc1O
0.000735
COc1cc(-c2cc(-c3ccc(O)cc3)[nH]c(=O)c2C#N)ccc1O
0.000861
COc1cc(-c2cc(-c3ccc(Br)cc3)[nH]c(=O)c2C#N)ccc1O
0.000691
COc1ccc(-c2cc(-c3ccc(O)c(OC)c3)c(C#N)c(=O)[nH]2)cc1
0.000633

----------
- condition_notes: in methanol, 313.15 K
attribute_measured: solubility (mole fraction)

COc1ccc(-c2cc(-c3ccc(O)c(OC)c3)c(C#N)c(=O)[nH]2)cc1
0.000562
COc1cc(-c2cc(-c3ccc(Cl)cc3)[nH]c(=O)c2C#N)ccc1O
0.000653
COc1cc(-c2cc(-c3ccc(O)cc3)[nH]c(=O)c2C#N)ccc1O
0.000664
COc1cc(-c2cc(-c3ccc(F)cc3)[nH]c(=O)c2C#N)ccc1O
0.000688
COc1cc(-c2cc(-c3ccc(Br)cc3)[nH]c(=O)c2C#N)ccc1O
0.000615

----------
- condition_notes: in ethanol, 318.15 K
attribute_measured: solubility (mole fraction)

COc1ccc(-c2cc(-c3ccc(O)c(OC)c3)c(C#N)c(=O)[nH]2)cc1
0.000846
COc1cc(-c2cc(-c3ccc(O)cc3)[nH]c(=O)c2C#N)ccc1O
0.000922
COc1cc(-c2cc(-c3ccc(Br)cc3)[nH]c(=O)c2C#N)ccc1O
0.000876
COc1cc(-c2cc(-c3ccc(Cl)cc3)[nH]c(=O)c2C#N)ccc1O
0.000905
COc1cc(-c2cc(-c3ccc(F)cc3)[nH]c(=O)c2C#N)ccc1O
0.000946

----------
- condition_notes: in n-butanol, 313.15 K
attribute_measured: solubility (mole fraction)

The following molecules have reported results that may help.
COc1cc(-c2cc(-c3ccc(Cl)cc3)[nH]c(=O)c2C#N)ccc1O
0.000549
COc1ccc(-c2cc(-c3ccc(O)c(OC)c3)c(C#N)c(=O)[nH]2)cc1
0.000443
COc1cc(-c2cc(-c3ccc(O)cc3)[nH]c(=O)c2C#N)ccc1O
0.000674

(P) COc1cc(-c2cc(-c3ccc(F)cc3)[nH]c(=O)c2C#N)ccc1O
(Q) COc1cc(-c2cc(-c3ccc(Br)cc3)[nH]c(=O)c2C#N)ccc1O
Challenge: Field: lower recorded solubility (mole fraction) (choose P or Q ) Provide the label of your selected option as the answer.
Response given: Q

----------
- condition_notes: in ethanol, 308.15 K
attribute_measured: solubility (mole fraction)

COc1cc(-c2cc(-c3ccc(F)cc3)[nH]c(=O)c2C#N)ccc1O
0.000848
COc1cc(-c2cc(-c3ccc(O)cc3)[nH]c(=O)c2C#N)ccc1O
0.000828
COc1cc(-c2cc(-c3ccc(Cl)cc3)[nH]c(=O)c2C#N)ccc1O
0.00081
COc1cc(-c2cc(-c3ccc(Br)cc3)[nH]c(=O)c2C#N)ccc1O
0.000789
COc1ccc(-c2cc(-c3ccc(O)c(OC)c3)c(C#N)c(=O)[nH]2)cc1
0.000759

----------
- condition_notes: in ethanol, 313.15 K
attribute_measured: solubility (mole fraction)

COc1cc(-c2cc(-c3ccc(F)cc3)[nH]c(=O)c2C#N)ccc1O
0.000897
COc1cc(-c2cc(-c3ccc(Br)cc3)[nH]c(=O)c2C#N)ccc1O
0.000832
COc1ccc(-c2cc(-c3ccc(O)c(OC)c3)c(C#N)c(=O)[nH]2)cc1
0.000802
COc1cc(-c2cc(-c3ccc(O)cc3)[nH]c(=O)c2C#N)ccc1O
0.000876
COc1cc(-c2cc(-c3ccc(Cl)cc3)[nH]c(=O)c2C#N)ccc1O
0.000861

----------
- condition_notes: in ethyl acetate, 328.15 K
attribute_measured: solubility (mole fraction)

COc1cc(-c2cc(-c3ccc(Br)cc3)[nH]c(=O)c2C#N)ccc1O
0.00156
COc1cc(-c2cc(-c3ccc(Cl)cc3)[nH]c(=O)c2C#N)ccc1O
0.00177
COc1cc(-c2cc(-c3ccc(F)cc3)[nH]c(=O)c2C#N)ccc1O
0.00187
COc1cc(-c2cc(-c3ccc(O)cc3)[nH]c(=O)c2C#N)ccc1O
0.0014
COc1ccc(-c2cc(-c3ccc(O)c(OC)c3)c(C#N)c(=O)[nH]2)cc1
0.00154
